- Test system: Human cytomegalovirus (Human herpesvirus 5)
- protocol_text: Inhibitory concentration of the drug against the cytopathic effect for AD169 strain of human cytomegalovirus (HCMV) in human HFF cells
experimental_readout: EC50

Below: 3 compounds and their reported EC50.
>>> df
                                   compound                              assay_system  experimental_readout  readout_value
0  CCc1cn([C@H]2C[C@H](O)[C@@H](CO)O2)c(=O)[nH]c1=O  Human cytomegalovirus (Human herpesvirus 5)                  EC50         0.9 µM
1  [N-]=[N+]=NC(CBr)c1cn([C@H]2C[C@H](O)[C@@H](CO)O2)c(=O)[nH]c1=O (some centres undefined)  Human cytomegalovirus (Human herpesvirus 5)                  EC50       > 130 µM
2  O=c1[nH]c(=O)n([C@H]2C[C@H](O)[C@@H](CO)O2)cc1/C=C/I  Human cytomegalovirus (Human herpesvirus 5)                  EC50        24.8 µM

Look up EC50: [N-]=[N+]=NC(CCl)c1cn([C@H]2C[C@H](O)[C@@H](CO)O2)c(=O)[nH]c1=O (some centres undefined)
> 150 µM

Requested read-out: EC50. Entry: CC(N=[N+]=[N-])c1cn([C@H]2C[C@H](O)[C@@H](CO)O2)c(=O)[nH]c1=O (some centres undefined)
> 170 µM

What value of measured EC50 is listed for [N-]=[N+]=NC(CI)c1cn([C@H]2C[C@H](O)[C@@H](CO)O2)c(=O)[nH]c1=O (some centres undefined) ?
> 118 µM

I would be grateful if you could share the reported EC50 for Nc1nc2c(ncn2COC(CO)CO)c(=O)[nH]1 .
0.5 µM

Look at this compound and give its reported EC50. COC(C)c1cn([C@H]2C[C@H](O)[C@@H](CO)O2)c(=O)[nH]c1=O (some centres undefined)
5.9 µM

Item under review: CC(N)c1cn([C@H]2C[C@H](O)[C@@H](CO)O2)c(=O)[nH]c1=O (some centres undefined) . Reported EC50?
> 125 µM

----------
Parameter: IC50. Scope: all listed entries.
- Organism: Homo sapiens
- protocol_text: Concentration of the drug required to reduce the proliferation of human foreskin fibroblast cells
- Type: functional
Hi! Could you send only the number? It should be in µM, unit omitted.

Take a look at these entries with their results.
>>> print(df.to_string())
                                   compound  readout_value
0  [N-]=[N+]=NC(CI)c1cn([C@H]2C[C@H](O)[C@@H](CO)O2)c(=O)[nH]c1=O (stereo not given in full)             76
1  O=c1[nH]c(=O)n([C@H]2C[C@H](O)[C@@H](CO)O2)cc1/C=C/I            4.4
2  CCc1cn([C@H]2C[C@H](O)[C@@H](CO)O2)c(=O)[nH]c1=O [EDOXUDINE]            115
3  CC(N=[N+]=[N-])c1cn([C@H]2C[C@H](O)[C@@H](CO)O2)c(=O)[nH]c1=O (stereo not given in full)             81
4  COC(C)c1cn([C@H]2C[C@H](O)[C@@H](CO)O2)c(=O)[nH]c1=O (stereo not given in full)            330

Please report the recorded IC50 for [N-]=[N+]=NC(CBr)c1cn([C@H]2C[C@H](O)[C@@H](CO)O2)c(=O)[nH]c1=O (stereo not given in full) .
91

# input compound: Nc1nc2c(ncn2COC(CO)CO)c(=O)[nH]1 [GANCICLOVIR] ; wanted: its IC50
168

----------
# reported log10 EC50; entries follow
- protocol_text: Inhibitory concentration of the drug against the cytopathic effect for ellen strain of […] in human HFF cells
- Type: functional, cell-based
Hi team, quick reminder: these entries are log10 of EC50 (µM).

                                   compound  readout_value
0  O=c1[nH]c(=O)n([C@H]2C[C@H](O)[C@@H](CO)O2)cc1/C=C/I          -2.00

Which log10 EC50 value is on record for [N-]=[N+]=NC(CCl)c1cn([C@H]2C[C@H](O)[C@@H](CO)O2)c(=O)[nH]c1=O (stereo partly drawn) ?
0.65

// log10 EC50 lookup, key: [N-]=[N+]=NC(CI)c1cn([C@H]2C[C@H](O)[C@@H](CO)O2)c(=O)[nH]c1=O (stereo partly drawn)
1.09

Need log10 EC50 of CCc1cn([C@H]2C[C@H](O)[C@@H](CO)O2)c(=O)[nH]c1=O [EDOXUDINE] , thanks.
1.82

What does the data say about its log10 EC50? Entry: [N-]=[N+]=NC(CBr)c1cn([C@H]2C[C@H](O)[C@@H](CO)O2)c(=O)[nH]c1=O (stereo partly drawn)
0.60

----------
- Test system: Raji
- protocol_text: Inhibitory concentration of the drug against the antigen production against P3HR-1 strain of epstein barr virus-2 (EBV) in Raji cells
- Type: functional, cell-based
- condition_label: Homo sapiens
experimental_readout: log10(EC50) (log10 of the value in µM)
log10 EC50, µM

In [3]: df
Out[3]:
                                   compound  readout_value
0  [N-]=[N+]=NC(CCl)c1cn([C@H]2C[C@H](O)[C@@H](CO)O2)c(=O)[nH]c1=O (stereo partly specified)           1.05
1  [N-]=[N+]=NC(CI)c1cn([C@H]2C[C@H](O)[C@@H](CO)O2)c(=O)[nH]c1=O (stereo partly specified)           0.60
2              Nc1nc2c(ncn2COCCO)c(=O)[nH]1           0.46
3  CC(N)c1cn([C@H]2C[C@H](O)[C@@H](CO)O2)c(=O)[nH]c1=O (stereo partly specified)           1.65

Fill in the blank: the reported log10(EC50) of CCc1cn([C@H]2C[C@H](O)[C@@H](CO)O2)c(=O)[nH]c1=O is ____.
1.08

Given the entry [N-]=[N+]=NC(CBr)c1cn([C@H]2C[C@H](O)[C@@H](CO)O2)c(=O)[nH]c1=O (stereo partly specified) , report its measured log10(EC50).
0.97

----------
- Species on record: Homo sapiens
- protocol_text: Concentration of the drug required to reduce the proliferation of human foreskin fibroblast cells
- Format: functional
pIC50: −log10 of the molar value.
Reported pIC50 values follow for various compounds

>>> df
                                   compound  readout_value
0  [N-]=[N+]=NC(CCl)c1cn([C@H]2C[C@H](O)[C@@H](CO)O2)c(=O)[nH]c1=O (stereo partly drawn)         < 3.52
1  CC(N)c1cn([C@H]2C[C@H](O)[C@@H](CO)O2)c(=O)[nH]c1=O (stereo partly drawn)         < 3.60

Need pIC50 of Nc1nc2c(ncn2COCCO)c(=O)[nH]1 , thanks.
< 3.36

----------
- protocol_text: Inhibitory concentration of the drug against the cytopathic effect for ellen strain of […] in human HFF cells
- Type: functional, cell-based
Measured EC50, listed per entry for reference.

Value lookup for EC50; key = CC(N)c1cn([C@H]2C[C@H](O)[C@@H](CO)O2)c(=O)[nH]c1=O (stereo partly drawn)
> 250 µM

Using the record for CC(N=[N+]=[N-])c1cn([C@H]2C[C@H](O)[C@@H](CO)O2)c(=O)[nH]c1=O (stereo partly drawn) , report its EC50.
> 67 µM

Looking for the measured EC50 of COC(C)c1cn([C@H]2C[C@H](O)[C@@H](CO)O2)c(=O)[nH]c1=O (stereo partly drawn) , can you help?
> 87 µM
